Biological target: recombinant human ROR2 D354E (human, UniProt Q01974 34-403)
Sequence (Q01974 34-403 D354E limits assumed): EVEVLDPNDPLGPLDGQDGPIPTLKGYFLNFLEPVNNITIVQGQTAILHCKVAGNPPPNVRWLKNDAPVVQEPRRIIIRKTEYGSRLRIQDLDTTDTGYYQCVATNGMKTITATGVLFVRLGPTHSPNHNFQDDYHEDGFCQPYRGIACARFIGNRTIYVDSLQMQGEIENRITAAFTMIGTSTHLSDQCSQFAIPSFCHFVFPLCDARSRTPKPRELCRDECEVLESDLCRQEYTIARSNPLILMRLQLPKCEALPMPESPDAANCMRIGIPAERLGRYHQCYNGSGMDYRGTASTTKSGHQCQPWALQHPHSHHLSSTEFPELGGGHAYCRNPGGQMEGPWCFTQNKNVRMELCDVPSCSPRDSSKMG
Assay: dot blot on nylon membrane, anti-human IgG-HRP
measured.metric: binding result

1) h6E6-116 (antibody, human IgG1, V domains shown, human IgG1; Alexa647 conjugate in flow cytometry) VH: EVQLVESGGGLVKPGGSLRLSCAASGFTFSTYGVSWVRQAPGKGLEWVSTISSGGGYTHYAGSVKGRFTISRDNAKNSLYLQMNSLRAEDTAVYYCARHPRDFSYALDYWGQGTTVTVSS VL: EIVMTQSPATLSVSPGERATLSCRASQDVGHYLAWYQQKPGQAPRLLIYWASTRATGIPARFSGSGSGTEFTLTISSLQSEDFAVYYCQQYNIYPWTFGQGTKVEIK ... no binding
2) h6E6-056 (antibody, human IgG1, V domains shown, human IgG1; also called clone 56) VH: EVQLVESGGGLVKPGGSLRLSCAASGFTFSKYGTSWVRQAPGKGLEWVSTISSGGGYTHYAPSVKGRFTISRDNAKNSLYLQMNSLRAEDTAVYYCARHPRDFSYAQDYWGQGTTVTVSS VL: EIVMTQSPATLSVSPGERATLSCRASQDVGHYVAWYQQKPGQAPRLLIYWASTRATGIPARFSGSGSGTEFTLTISSLQSEDFAVYYCQQYNIYPWTFGQGTKVEIK ... no binding

Data credit: patent US20260209348A1
